Origin of values: ChEMBL document CHEMBL3988442

- Tested on: Plasmodium falciparum
- assayNotes: Calibr Malaria Delayed Death Assay SOP
- Type: functional, organism-based
- Design: scale not given: in the data most compounds retested in dose-response had high values
- assayConditions: concentration 4.99e-06 (unit not given; other assays of the set use mol/L)
About 1,200 (3.2%) of roughly 38,000 compounds showed an effect of 50% or more. The median lay at about -58%. The sample as a whole holds a higher share of strong results than the screen did.
recordedEndpoint: Percent Effect (%)
Hi! Could you send only the number? It should be in %, unit omitted.

Worked cases, answers included:
molecule: Cc1nc(-c2ccco2)ccc1C(=O)NCCC(=O)N1CCCCC1
unitAbbreviation: %
assayValue: -60.18
//
molecule: Cc1oc(-c2nc(C#N)c(N(C)C)o2)cc1S(=O)(=O)N1CCCCCC1
unitAbbreviation: %
assayValue: -117.8
//
molecule: Cn1nc(CN2CCCCC(N)C2)c2c(Cl)cccc21 (configuration not stated)
unitAbbreviation: %
assayValue: 65.71
//
molecule: O=C(c1cc(C2CC2)[nH]n1)N1CCN(Cc2ccccc2)CC1
unitAbbreviation: %
assayValue: -79.8
//
molecule: C[C@@H]1CN(C2CCN(Cc3nn(C)c4cccc(Cl)c34)CC2)C[C@H](C)O1
unitAbbreviation: %
assayValue: -11.21

Return reported Percent Effect; argument: Cc1n[nH]cc1CNCC(O)c1ccc(F)c(F)c1.Cl (configuration not stated)
-33.27

Fill in: Percent Effect of `Cc1cccc2c(CCNC(=O)[C@H](N)c3ccccc3)c[nH]c12` is ___
61.63

###

- Tested on: Plasmodium falciparum
- assayNotes: Calibr Malaria Delayed Death Assay SOP
- Type: functional, organism-based
- Design: scale not given: in the data most compounds retested in dose-response had high values
- assayConditions: concentration 4.99e-06 (unit not given; other assays of the set use mol/L)
Among all 38,000 compounds or so, about 1,200 (3.2%) showed an effect of 50% or more. The median lay at about -58%. Shown is part of a subset that was picked to be rich in strong results.
Reported values of Percent Effect for individual entries
Note: a bare number is incomplete; add the unit.

Below, 2 molecules whose answers are already recorded.
molecule: N[C@H]1CC[C@@H](Nc2nccc(CCC(F)(F)F)n2)CC1
systemName: Plasmodium falciparum
recordedEndpoint: Percent Effect
assayValue: 50.03%
//
molecule: Cc1cc(C[C@@H]2COC[C@@H]2NC(=O)Cn2c(=O)oc3ccccc32)on1
systemName: Plasmodium falciparum
recordedEndpoint: Percent Effect
assayValue: -110.9%

Enter reported Percent Effect observed with Plasmodium falciparum for COc1cccc(-c2n[nH]cc2CNC2CCC(O)CC2)c1.Cl (stereo not drawn)
-76.02%

###

- System: Plasmodium falciparum
- assayNotes: Calibr Malaria Delayed Death Assay SOP
- Assay type: functional, organism-based
- Set-up: scale not given: in the data most compounds retested in dose-response had high values
- assayConditions: concentration 4.99e-06 (unit not given; other assays of the set use mol/L)
About 1,200 (3.2%) of roughly 38,000 compounds showed an effect of 50% or more. The median lay at about -58%. The list comes from a sample in which strong results are over-represented; it also holds close analogues and randomly drawn compounds.
Mark t for Percent Effect under -60%, f if at or over.

Use the examples below as a reference point.
compound: CC1CCCN(C(=O)CNC(=O)c2ccoc2)C1 (stereo unspecified)
assignedLabel: t
--
compound: Cc1cc(C)c2nc(C)cc(C(=O)NC(C)c3nnn[nH]3)c2c1 (stereo unspecified)
assignedLabel: f
--
compound: CC(NC(=O)NCC1(c2ccc(F)cc2)CCCC1)c1nncn1C (stereo unspecified)
assignedLabel: f
--
compound: Cc1sc2nc(C(F)(F)F)nc(N3CCN(C)CC3)c2c1C
assignedLabel: f
--
compound: CN1CCNC(=O)C1CC(=O)NCCc1cnn(-c2ccccc2)c1 (stereo unspecified)
assignedLabel: f
--
compound: COC(=O)CCNC(=O)c1cc(-c2ccc(OC)cc2)nn1C
assignedLabel: t
--
compound: CC(C)C1CCC(N2CCN(CCCS(C)(=O)=O)CC2)CC1 (stereo unspecified)
assignedLabel: f
--
compound: Cc1cc(CN2C[C@@H]3COC[C@@H](C(=O)N4CCCCO4)[C@@H]3C2)no1.O=C(O)C(F)(F)F
assignedLabel: f

Input CC(NCC1CCN(CCO)CC1)c1ccc(F)c(Cl)c1 (stereo unspecified) ; condition: Percent Effect strictly below -60%. Does it hold?
f

API: query returns whether the compound falls strictly under -60% in Percent Effect. Query: `CC(=O)Nc1nc(C2CCN(C(=O)c3cncs3)CC2)cs1`
f

For this compound, is Percent Effect lower than -60%? `CO[C@H]1CNC[C@@H]1NC(=O)c1cc(C)nc2c(C)c(C)ccc12`
f

Does `CC(=O)N1CCN(c2nc(C(F)(F)F)nc3sc(C)c(C)c23)CC1` have Percent Effect strictly under -60%?
f

###

- Test system: Plasmodium falciparum
- assayNotes: Calibr Malaria Delayed Death Assay SOP
- Type: functional, organism-based
- Parameters: scale not given: in the data most compounds retested in dose-response had high values
- assayConditions: concentration 4.99e-06 (unit not given; other assays of the set use mol/L)
The campaign covered roughly 38,000 compounds. About 1,200 (3.2%) showed an effect of 50% or more. The median lay at about -58%. What follows is part of a selection rich in strong results, with near analogues and random picks from the rest.
recordedEndpoint: Percent Effect

compound: COc1cc(C#N)ccc1OC12CCCN(CC1)C2 (stereo not given)
Percent Effect: -68.61%
//
compound: CC1=N[C@@]2(CC[C@@H]3CN(Cc4ccccc4F)C[C@@H]32)C(=O)N1CC1CC1.O=C(O)C(F)(F)F
Percent Effect: 66.32%
//
compound: CCC1=N[C@@]2(CC[C@@H]3CN(Cc4ccccc4F)C[C@@H]32)C(=O)N1CC.O=C(O)C(F)(F)F
Percent Effect: 37.33%
//
compound: COCCN(C)C[C@@H]1CN(C(=O)c2ccc(SC)cc2)C[C@@H]1CO
Percent Effect: -5.304%

Find Percent Effect (Plasmodium falciparum) for the entry `COc1ccc(-c2cnc(NC(C)=O)[nH]2)cc1`
-138%

# returns recorded Percent Effect (system: Plasmodium falciparum) for COc1ccc(-c2ccc(C3CNCCO3)nc2)cc1.Cl (stereo not given)
63.33%

Report Percent Effect for `CCC(CC)C(=O)NCCC(=O)N1CCN(c2ccccn2)CC1` tested on Plasmodium falciparum.
-127.9%

Plasmodium falciparum / Percent Effect / `CN(C)C(=O)CN1CCC2(CC1)COc1ccccc1S(=O)(=O)N(C)C2.O=C(O)C(F)(F)F` : value?
-44.68%

Write down the reported Percent Effect of Cc1cnn(CC2CCCCN2C(=O)c2cccc(C(N)=O)c2)c1 (stereo not given) , test system: Plasmodium falciparum.
-136.1%

Please provide the recorded Percent Effect for `CN1CC2(CCN(CC3CC3)CC2)COc2ccccc2S1(=O)=O.O=C(O)C(F)(F)F` , tested on Plasmodium falciparum.
52.41%

What value of Percent Effect on Plasmodium falciparum does `CC(=O)N1CCCN(CCn2nc3ccccn3c2=O)CC1` have?
-130.1%

Form entry - test system: Plasmodium falciparum; read-out: Percent Effect; compound: `Cc1ccc(CNc2cc3c(cc2Cl)NC(=O)CO3)cc1C`
-53.48%

// fetch Plasmodium falciparum Percent Effect for `O=C1CCN(C(=O)CCc2ccc(Cl)cc2Cl)CCN1`
-159.9%

Any idea what Percent Effect came out for `CC1=N[C@@]2(CC[C@@H]3CN(CC(=O)N(C)C)C[C@@H]32)C(=O)N1CC1CC1.O=C(O)C(F)(F)F` on Plasmodium falciparum?
-113.5%

Quick check: Percent Effect on Plasmodium falciparum, item `CC[C@@H]1N(Cc2nccs2)CCC[C@]12CCC(=O)N2CCOC.O=C(O)C(F)(F)F` ?
-51.09%

###

Collected Percent Effect values appear next to each entry.
- System: Plasmodium falciparum
- assayNotes: Calibr Malaria Delayed Death Assay SOP
- Type: functional, organism-based
- Design: scale not given: in the data most compounds retested in dose-response had high values
- assayConditions: concentration 4.99e-06 (unit not given; other assays of the set use mol/L)
Among all 38,000 compounds or so, about 1,200 (3.2%) showed an effect of 50% or more. The median lay at about -58%. The sample as a whole holds a higher share of strong results than the screen did.
Dear colleague, please return just the value in %, with no unit written.

Below: 4 molecules and their reported Percent Effect.
molecule: CCN(CC)C1CCN(C(=O)NCc2c(C)noc2C)CC1
unitAbbreviation: %
Percent Effect: -63.79

molecule: CC(c1ccc(F)cc1F)N1CCN(CCC(=O)NC(N)=O)CC1 (stereo unspecified)
unitAbbreviation: %
Percent Effect: 63.51

molecule: O=c1[nH]cnc2[nH]c(N3CCCCC3)nc12
unitAbbreviation: %
Percent Effect: -26.61

molecule: CCOc1ccc2nc(CN3CCC(CNC(C)=O)C3)ccc2c1 (stereo unspecified)
unitAbbreviation: %
Percent Effect: 36.59

Suppose we examine the molecule `O=C(NCCN1CCCCC1)c1nc2ccccc2c(=O)[nH]1` ; what Percent Effect value has been reported?
-48.08

Could you tell me which Percent Effect is on file for `O=C(N1CCCC1)N1CCN(Cc2cccnc2)c2ncccc2C1.O=C(O)C(F)(F)F.O=C(O)C(F)(F)F` ?
-47.54

Recorded Percent Effect for `CCN(CC)CCNC(=O)c1cnc(-c2ccccc2)nc1` , please?
-36.61

Value lookup for Percent Effect; key = CCOc1ccc2nc(CN3CCOC(CN)C3)ccc2c1 (stereo unspecified)
-11.41

Give the measured Percent Effect of CCCn1ncc2c(C(=O)NC(C)Cn3cccn3)cc(C3CC3)nc21 (stereo unspecified) .
-124.5

Value lookup for Percent Effect; key = `CCn1nc(C)c2ccn(CC(=O)NCCN3CCCCC3)c(=O)c21`
-46.75

// lookup Percent Effect for `O=C(NCCN1CCCCC1)c1cccc(Cl)c1Cl`
47.98

Requested field: Percent Effect. Item: COc1ccccc1N1CCC(CNC(=O)CN2CSCC2=O)C1 (stereo unspecified)
-74.71

Looking for the measured Percent Effect of CNC(=O)C(C)S(=O)(=O)Cc1csc(-c2cccs2)n1 (stereo unspecified) , can you help?
-44.96

Which Percent Effect value belongs to `O=C(O)c1cc(S(=O)(=O)Nc2cccc3c2OCCO3)c(Cl)cc1F` ?
-73.09

Need Percent Effect of Clc1cc(CN2CCCN3CCCC3C2)c2ncccc2c1 (stereo unspecified) , thanks.
88.94

GET /values?readout=Percent Effect&item= CC(c1ccc(F)cc1F)N1CCN(CCN2CCCC2=O)CC1 (stereo unspecified)
-15.63
